Readings of inhibition in vivo at 0.003 mg for the listed molecules
System: Hamster's ear sebaceous glands
experiment-description: Topical antiandrogenic activity, histomorphometry of the ear sebaceous glands in the hamster
Type: in vivo, Male Golden Syrian hamster
experimental-context: Mesocricetus auratus, 336 h, dose 3 μg applied topically on left ear of intact male hamster, once daily, 14 days, sebaceous gland area, read-out: Antiandrogenic activity in Hamster's sebaceous glands Inh. Vs Cx (%)
Please provide the amount together with its unit, number first.

Examples from the recorded data:
CCC=C[C@]1(O)CCC2C3CCc4c(C#N)cccc4C3CC[C@@]21C (some centres unmarked) | 71.4%
CC#Cc1ccc2c(c1C#N)CCC1C2CC[C@]2(C)C(=O)CCC12 (some centres unmarked) | 18.5%

Fill in: inhibition in vivo at 0.003 mg of CC(C)[C@H]1CC2C3CCc4c(C#N)cccc4C3CC[C@]2(C)[C@H]1O (some centres unmarked) is ___ 29.6%

Fill in: inhibition in vivo at 0.003 mg of CC1(C)CC2C3CCc4c(Cl)cccc4C3CC[C@]2(C)[C@H]1O (some centres unmarked) is ___ 11.1%

Fill in: inhibition in vivo at 0.003 mg of C#Cc1ccc2c(c1)CCC1C2CC[C@@]2(C)C1C[C@@H](C)[C@@H]2O (some centres unmarked) is ___ 11.1%
